Source listed as patent US20100233154A1.

# measurement.target: T1, recombinant human heparanase (active, 8 and 50 kDa sub-units, from baculovirus-infected Hi5 cells) (human, UniProt Q9Y251 36-109; Q9Y251 158-543)
# T1 sequence (looked up) 1: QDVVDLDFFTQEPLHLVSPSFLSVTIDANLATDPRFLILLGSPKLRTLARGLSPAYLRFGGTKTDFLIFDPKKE
# T1 sequence (looked up) 2: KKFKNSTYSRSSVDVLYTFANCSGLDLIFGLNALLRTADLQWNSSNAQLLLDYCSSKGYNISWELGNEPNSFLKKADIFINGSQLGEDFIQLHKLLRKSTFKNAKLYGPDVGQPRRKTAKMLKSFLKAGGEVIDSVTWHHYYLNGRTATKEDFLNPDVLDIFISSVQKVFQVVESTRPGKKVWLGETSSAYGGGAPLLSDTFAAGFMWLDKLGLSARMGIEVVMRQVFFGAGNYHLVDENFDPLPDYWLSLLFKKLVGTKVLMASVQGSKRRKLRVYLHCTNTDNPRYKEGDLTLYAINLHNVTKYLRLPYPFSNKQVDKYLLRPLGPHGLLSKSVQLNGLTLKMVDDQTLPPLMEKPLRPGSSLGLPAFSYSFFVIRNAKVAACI
# assay.comment: cell-based or functional assay
quantity: Inhibition of recombinant human heparanase %, Assay 2 (%)
Your answer is read as %, so omit the unit and give the number.

monoclonal antibody 16E1.1 (antibody, V domains shown, Fully human (XenoMouse) antibody) VH: QVQLQESGPGLVKPSQTLSLTCTVSGGSISSGGYYWSWIRQHPGKGLEWIGFIYYSGSTFYNPSLKSRITISVDTSKNQFSLKLSSVTAADTAVYYCARPYSSSWYGAFDIWGQGTMVTVSS VL: SYELTQPPSVSVSPGRTASITCSEDKLGNKYAYWYQQKPGQSPVLVIYQDSERPSGIPERFSGSNSGNTATLTISGTQAMDEADYYCQAWDSSTVVFGGGTKLTVL
51
monoclonal antibody 15A11.1 (antibody, V domains shown, Fully human (XenoMouse) antibody; also called ATCC PTA-9490) VH: QVQLVQSGAEVKKPGASVKVSCKVSGDTLTELSMHWVRQTPGKGLEWMGGFDPEDGETIYAQKFQGRVTMTGDTSTDTAYMELSSLRSEDTAVYYCATEGDYGDSEEYYYYYGMDVWGQGTTVTVSS VL: DIQMTQSPSSLSASVGDRVTITCRASQGISNYLAWYQQKPGKVPKLLIYAASTLQSGVPSRFSGSGSGTDFTLTISSLQPEDVATYYCQKYNRAPFTFGPGTKVDIK
87

Record request: Inhibition of recombinant human heparanase %, Assay 2 value, item monoclonal antibody 16G1.1 (antibody, V domains shown, Fully human (XenoMouse) antibody) VH: QVQLVESGGGVVQPGRSLRLSCAASGFTFSSYGMHWVRQAPGKGLEWVAVIWYDGSNKYYADSVKGRFTISRDNSKNTLNLQMNSLRAEDTAVYYCGRDPGTYHYYYHGMDVWGQGTTVTVSS VL: YIVMTQSPLSLPVTPGEPASISCRSSQSLLHSNGYNFLDWYLQKPGQSPQLLIYLGSNRASGVPDRFSGSGSGTDFTLKINRVEAEDVGVYYCMQALQTPITFGQGTRLEIK
53
